Tested on: Human prostate cancer cell line (NCI-H358)
Test: Inhibition of NCI-H358 cell proliferation (CellTiter luminescent viability)
Conditions: Table IH1, BCL-2 inhibitor-based, NCI-H358, 500 nM, 96 hours, read-out: Inhibition Rate at 500 nM (%)
Below is a list of entries, each paired with its recorded inhibition at 0.5 µM value.

Use the examples below as a reference point.
MOLECULE	TARGET_OR_SYSTEM	REPORTED_METRIC	EXPERIMENTAL_VALUE
CC1(C)CCC(c2ccc(Cl)cc2)=C(CN2CCN(c3ccc(C(=O)NS(=O)(=O)c4ccc(N[C@H](CCN5CC6CCC5CN6Cc5ccc6c(c5)CN(N5CCC(=O)NC5=O)C6=O)CSc5ccccc5)c(S(=O)(=O)C(F)(F)F)c4)cc3)CC2)C1 (stereo partly shown) [GT-07811]	Human prostate cancer cell line (NCI-H358)	inhibition at 0.5 µM	40 to 50%
CC1(C)CCC(c2ccc(Cl)cc2)=C(CN2CCN(c3ccc(C(=O)NS(=O)(=O)c4ccc(N[C@H](CCN5CC6CCC5CN6Cc5ccc6c(c5)C(=O)N(N5CCC(=O)NC5=O)C6=O)CSc5ccccc5)c(S(=O)(=O)C(F)(F)F)c4)cc3)CC2)C1 (stereo partly shown) [GT-07815]	Human prostate cancer cell line (NCI-H358)	inhibition at 0.5 µM	30 to 40%
CC1(C)CCC(c2ccc(Cl)cc2)=C(CN2CCN(c3ccc(C(=O)NS(=O)(=O)c4ccc(N[C@H](CCN5CC6CCC(C5)N6Cc5ccc6c(c5)CN(N5CCC(=O)NC5=O)C6=O)CSc5ccccc5)c(S(=O)(=O)C(F)(F)F)c4)cc3)CC2)C1 [GT-07813]	Human prostate cancer cell line (NCI-H358)	inhibition at 0.5 µM	20 to 30%

Let us move to another entry and its inhibition at 0.5 µM.
Documented inhibition at 0.5 µM of CC1(C)CCC(CN2CCN(c3ccc(C(=O)NS(=O)(=O)c4ccc(NCC5CCOCC5)c([N+](=O)[O-])c4)c(Oc4cnc5[nH]ccc5c4)c3)CC2)=C(c2ccc(Cl)cc2)C1 [ABT-199, Venetoclax, reference compound] : 5 to 10%

---

Target: human Cereblon WT GST-tagged protein (CRBN) (Homo sapiens, UniProt Q96SW2)
Construct: purchased CISBIO 64BDCRBNPEH
Sequence (Q96SW2 whole entry): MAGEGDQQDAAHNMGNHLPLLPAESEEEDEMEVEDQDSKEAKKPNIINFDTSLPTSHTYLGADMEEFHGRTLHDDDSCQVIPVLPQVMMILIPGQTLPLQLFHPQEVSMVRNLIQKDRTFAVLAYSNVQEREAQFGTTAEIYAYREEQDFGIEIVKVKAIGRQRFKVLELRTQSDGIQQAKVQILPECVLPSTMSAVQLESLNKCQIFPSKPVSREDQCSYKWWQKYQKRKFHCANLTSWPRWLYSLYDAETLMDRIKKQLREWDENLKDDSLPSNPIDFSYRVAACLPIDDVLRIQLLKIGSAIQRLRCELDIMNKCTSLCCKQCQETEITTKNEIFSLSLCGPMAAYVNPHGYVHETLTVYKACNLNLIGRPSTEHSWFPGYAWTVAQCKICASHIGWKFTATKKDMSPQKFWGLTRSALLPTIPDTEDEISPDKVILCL
Experiment: CRBN binding by HTRF (Cereblon binding kit)
Details: 2 μM
Description: The CEREBLON BINDING kits (specification: 10,000 tests; product number: Catalog #64BDCRBNPEH; CISBIO company) was used to determine the CRBN binding ability of the compounds to be tested through a HTRF method (homogeneous time-resolved fluorescence). […] After sealing and incubating the solutions in the aforementioned wells at room temperature for 3 hours, the absorbance values at emission wavelengths of 620 nm and 665 nm were detected by the HTRF method using a Spark microplate reader (V3.1 SP1). […]

COMPOUND	Inhibition Rate at 2 μM (%)
Cc1nc2c(F)cc(-c3nc(Nc4ccc(CN5CCN(CC6CCN(c7cccc8c7C(=O)N(N7CCC(=O)NC7=O)C8=O)CC6)CC5)cn4)ncc3F)cc2n1C(C)C	a5 (53% < a5 ≤ 60%)
O=C1CCN(N2Cc3cc(CN4CCC(N5CCN(c6ccc(-c7cc(F)c8c(c7)C(=O)N(C(C(=O)Nc7nccs7)c7ncn9c7CCC9)C8)cc6)CC5)CC4)ccc3C2=O)C(=O)N1 (stereo not drawn)	a5 (53% < a5 ≤ 60%)

---

Below is a list of entries, each paired with its recorded inhibition at 0.5 µM value.
System: Human Multiple myeloma cell line (MM.1S)
Assay: Inhibition of MM.1S cell proliferation (CellTiter luminescent viability)
Format: cell-based
Settings: Homo sapiens, MM1.S, Table IG1, FAK inhibitor-based, 500 nM, 96 hours, read-out: Inhibition Rate at 500 nM (%)

COMPOUND	inhibition at 0.5 µM
CNC(=O)c1ccccc1Nc1cc(Nc2ccc(N3CCN(Cc4ccc5c(c4)C(=O)N(N4CCC(=O)NC4=O)C5=O)CC3)cc2OC)ncc1C(F)(F)F [GT-07661]	40 to 60%

Documented inhibition at 0.5 µM of CNC(=O)c1ccccc1Nc1cc(Nc2cc(C)c(C3CCN(Cc4ccc5c(c4)C(=O)N(N4CCC(=O)NC4=O)C5=O)CC3)cc2OC(C)C)ncc1C(F)(F)F [GT-07664] : 40 to 60%

Documented inhibition at 0.5 µM of CNC(=O)c1ccc(Nc2ncc(C(F)(F)F)c(NCc3nccnc3N(C)S(C)(=O)=O)n2)cc1 [Defactinib, reference compound] : 5 to 10%

---

Target: human Cereblon WT GST-tagged protein (CRBN) (Homo sapiens, UniProt Q96SW2)
Construct: purchased CISBIO 64BDCRBNPEH
Test: CRBN binding by HTRF (Cereblon binding kit)
Details: 0.5 μM, read-out: Inhibition Rate at 0.5 μM (%)
REPORTED_METRIC: inhibition at 0.5 µM

Use the examples below as a reference point.
COMPOUND	inhibition at 0.5 µM
O=C1CCN(N2C(=O)c3ccc(N4CC5CCC4CN5C[C@H]4CC[C@H](n5cc(NC(=O)c6cnn7ccc(N8C[C@H]9C[C@@H]8CO9)nc67)c(C(F)F)n5)CC4)cc3C2=O)C(=O)N1	40 to 53%
Cn1c2ccncc2c2ccc(-c3cnc(N4CCN(Cc5ccc6c(c5)CN(N5CCC(=O)NC5=O)C6=O)CC4)c(Cl)c3)cc21	30 to 40%
O=C1CCN(N2C(=O)c3ccc(N4CC5CCC4CN5CC4CCN(c5ccn6c(n5)nc5ccccc56)CC4)cc3C2=O)C(=O)N1 (stereo not drawn)	20 to 30%
O=C1CCN(N2Cc3cc(CN4CCC(n5cc(NC(=O)c6cnn7ccc(N8CCOCC8)nc67)c(C(F)F)n5)CC4)ccc3C2=O)C(=O)N1	20 to 30%

The observed inhibition at 0.5 µM for CN(Cc1ccc2c(c1)CN(N1CCC(=O)NC1=O)C2=O)C1CCN(c2ccc(Nc3ncc4nc(Nc5ccccc5)n(C5CCCC5)c4n3)cc2)CC1 when tested with human Cereblon WT GST-tagged protein (CRBN) (Homo sapiens, UniProt Q96SW2) stands at 10 to 20%

The observed inhibition at 0.5 µM for O=C1CCN(N2C(=O)c3ccc(N4C5CC4CN(C[C@H]4CC[C@H](n6cc(NC(=O)c7cnn8ccc(N9C[C@H]%10C[C@@H]9CO%10)nc78)c(C(F)F)n6)CC4)C5)cc3C2=O)C(=O)N1 when tested with human Cereblon WT GST-tagged protein (CRBN) (Homo sapiens, UniProt Q96SW2) stands at 30 to 40%

The observed inhibition at 0.5 µM for O=C1CCN(N2Cc3cc(CN4CCN(c5ccn6c(n5)nc5ccccc56)CC4)ccc3C2=O)C(=O)N1 when tested with human Cereblon WT GST-tagged protein (CRBN) (Homo sapiens, UniProt Q96SW2) stands at 10 to 20%

The observed inhibition at 0.5 µM for N#Cc1ccc(O[C@H]2CC[C@H](NC(=O)c3ccc(N4CCC(CN5C[C@@H]6C[C@H]5CN6c5ccc6c(c5)C(=O)N(N5CCC(=O)NC5=O)C6=O)CC4)nn3)CC2)cc1Cl when tested with human Cereblon WT GST-tagged protein (CRBN) (Homo sapiens, UniProt Q96SW2) stands at 30 to 40%

The observed inhibition at 0.5 µM for N#Cc1ccc(O[C@H]2CC[C@H](NC(=O)c3ccc(N4CCC(CN5CC6CCC5CN6c5ccc6c(c5)C(=O)N(N5CCC(=O)NC5=O)C6=O)CC4)nn3)CC2)cc1Cl (stereo partly drawn) when tested with human Cereblon WT GST-tagged protein (CRBN) (Homo sapiens, UniProt Q96SW2) stands at 30 to 40%

The observed inhibition at 0.5 µM for Cn1ncc(Cl)c1-c1cc(C(=O)N[C@H](CNCC2CCN(c3ccc4c(c3)C(=O)N(N3CCC(=O)NC3=O)C4=O)CC2)Cc2ccc(F)c(F)c2)oc1Cl when tested with human Cereblon WT GST-tagged protein (CRBN) (Homo sapiens, UniProt Q96SW2) stands at 10 to 20%

The observed inhibition at 0.5 µM for CC(C)(O)c1cc2nc(C3CCN(Cc4ccc5c(c4)CN(N4CCC(=O)NC4=O)C5=O)CC3)oc2cc1NC(=O)c1cccc(C(F)(F)F)n1 when tested with human Cereblon WT GST-tagged protein (CRBN) (Homo sapiens, UniProt Q96SW2) stands at 10 to 20%

The observed inhibition at 0.5 µM for CC1(C)[C@H](NC(=O)c2ccc(N3CCC(CN4CC5CCC4CN5c4ccc5c(c4)C(=O)N(N4CCC(=O)NC4=O)C5=O)CC3)nc2)C(C)(C)[C@H]1Oc1ccc(C#N)c(Cl)c1 (stereo partly drawn) when tested with human Cereblon WT GST-tagged protein (CRBN) (Homo sapiens, UniProt Q96SW2) stands at 30 to 40%

---

Below is a list of entries, each paired with its recorded inhibition at 0.5 µM value.
Target: human Cereblon WT GST-tagged protein (CRBN) (Homo sapiens, UniProt Q96SW2)
Construct: purchased CISBIO 64BDCRBNPEH
Assay: CRBN binding by HTRF (Cereblon binding kit)
Conditions: 0.5 μM, read-out: Inhibition Rate at 0.5 μM (%)

Use the examples below as a reference point.
COMPOUND	TARGET_OR_SYSTEM	EXPERIMENTAL_VALUE
CN(Cc1ccc(-c2[nH]c3cc(F)cc4c3c2CCNC4=O)cc1)Cc1ccc2c(c1)CN(N1CCC(=O)NC1=O)C2=O [GT-08403]	human Cereblon WT GST-tagged protein (CRBN) (Homo sapiens, UniProt Q96SW2)	20 to 30%
O=C1CCN(N2C(=O)c3cccc(N4CCC(CN5CCC(n6cc(NC(=O)c7cnn8ccc(N9C[C@H]%10C[C@@H]9CO%10)nc78)c(C(F)F)n6)CC5)CC4)c3C2=O)C(=O)N1 [GT-05285]	human Cereblon WT GST-tagged protein (CRBN) (Homo sapiens, UniProt Q96SW2)	20 to 30%
Cn1ncc(Cl)c1-c1cc(C(=O)N[C@H](CNCC2CCN(c3cccc4c3C(=O)N(N3CCC(=O)NC3=O)C4=O)CC2)Cc2cccc(F)c2)sc1Cl [GT-08587]	human Cereblon WT GST-tagged protein (CRBN) (Homo sapiens, UniProt Q96SW2)	10 to 20%

Let us move to another entry and its inhibition at 0.5 µM.
Documented inhibition at 0.5 µM of Cn1c2ccncc2c2ccc(-c3cnc(N4CCN(Cc5ccc6c(c5)CN(N5CCC(=O)NC5=O)C6=O)CC4)c(C(F)(F)F)c3)cc21 [GT-08539] : 20 to 30%
